- Test system: human iPS cells
- test: Proliferation Evaluation of iPS cells on polypeptide-coated plate
- Assay type: cell-based
- experimental.parameters: addition amount 20 μg/cm^2; 5000 cells/well
value.type: The Number (%) of Cells after 3 Days
Just the number please, in %, no unit attached.

molecule	The Number (%) of Cells after 3 Days
RCP-3: recombinant polypeptide, Met + human vitronectin positions 1-55, 322-341, 342-373 (protein, Synthetic Peptide RCP-3) MDQESCKGRCTEGFNVDKKCQCDELCSYYQSCCTDYTAECKPQVTRGDVFTMPEDEGVPGQVDAAMAGRIYISGMAPRPSLAKKQRFRHRNRKGYRSQRGHSRGRNQN	109.7
RCP-2: recombinant polypeptide, Met + human vitronectin positions 1-55, 342-373 (protein, Synthetic Peptide RCP-2) MDQESCKGRCTEGFNVDKKCQCDELCSYYQSCCTDYTAECKPQVTRGDVFTMPEDEPRPSLAKKQRFRHRNRKGYRSQRGHSRGRNQN	81.7
RCP-6: recombinant polypeptide, Met + human vitronectin positions 1-55, 269-459, C274S (protein, Synthetic Peptide RCP-6, recombinant polypeptide, Met + human vitronectin positions 1-55, 269-459, C274S) MDQESCKGRCTEGFNVDKKCQCDELCSYYQSCCTDYTAECKPQVTRGDVFTMPEDESQEESEGSSLSAVFEHFAMMQRDSWEDIFELLFWGRTSAGTRQPQFISRDWHGVPGQVDAAMAGRIYISGMAPRPSLAKKQRFRHRNRKGYRSQRGHSRGRNQNSRRPSRATWLSLFSSEESNLGANNYDDYRMDWLVPATSEPIQSVFFFSGDKYYRVNLRTRRVDTVDPPYPRSIAQYWLGSPAPGHL	70.5

Let's switch to this molecule now.
So, RCP-9: recombinant polypeptide, Met + human vitronectin positions 1-55, 269-373, 374-389, C274S (protein, Synthetic Peptide RCP-9, recombinant polypeptide, Met + human vitronectin positions 1-55, 269-373, 374-389, C274S) MDQESCKGRCTEGFNVDKKCQCDELCSYYQSCCTDYTAECKPQVTRGDVFTMPEDESQEESEGSSLSAVFEHFAMMQRDSWEDIFELLFWGRTSAGTRQPQFISRDWHGVPGQVDAAMAGRIYISGMAPRPSLAKKQRFRHRNRKGYRSQRGHSRGRNQNSRRPSRATWLSLFSSE ? Its The Number (%) of Cells after 3 Days was 105.8

Origin of values: patent US10407662B2
